I'd be grateful if you could share measured solubility kinetic at 1.5 h for these entries.
Assay: Aqueous solubility of the compound at pH 7.4 after 90 mins by laser nephelometric analysis
Type: physicochemical
Settings: aqueous medium

Qu. Please give the measured solubility kinetic at 1.5 h for this molecule: `COc1ccc(S(=O)(=O)N(Cc2ccc3c(c2)C=CC(C)(C)O3)c2ccccc2)cc1OC`
Ans. < 15 µg/mL

Qu. Please give the measured solubility kinetic at 1.5 h for this molecule: `CC(C)N(Cc1ccc2c(c1)C=CC(C)(C)O2)S(=O)(=O)c1ccccn1`
Ans. < 15 µg/mL

---

Target: Histone acetyltransferase p300 (Homo sapiens) (UniProt Q09472)
Sequence (Q09472 whole entry, the tested form may be a part): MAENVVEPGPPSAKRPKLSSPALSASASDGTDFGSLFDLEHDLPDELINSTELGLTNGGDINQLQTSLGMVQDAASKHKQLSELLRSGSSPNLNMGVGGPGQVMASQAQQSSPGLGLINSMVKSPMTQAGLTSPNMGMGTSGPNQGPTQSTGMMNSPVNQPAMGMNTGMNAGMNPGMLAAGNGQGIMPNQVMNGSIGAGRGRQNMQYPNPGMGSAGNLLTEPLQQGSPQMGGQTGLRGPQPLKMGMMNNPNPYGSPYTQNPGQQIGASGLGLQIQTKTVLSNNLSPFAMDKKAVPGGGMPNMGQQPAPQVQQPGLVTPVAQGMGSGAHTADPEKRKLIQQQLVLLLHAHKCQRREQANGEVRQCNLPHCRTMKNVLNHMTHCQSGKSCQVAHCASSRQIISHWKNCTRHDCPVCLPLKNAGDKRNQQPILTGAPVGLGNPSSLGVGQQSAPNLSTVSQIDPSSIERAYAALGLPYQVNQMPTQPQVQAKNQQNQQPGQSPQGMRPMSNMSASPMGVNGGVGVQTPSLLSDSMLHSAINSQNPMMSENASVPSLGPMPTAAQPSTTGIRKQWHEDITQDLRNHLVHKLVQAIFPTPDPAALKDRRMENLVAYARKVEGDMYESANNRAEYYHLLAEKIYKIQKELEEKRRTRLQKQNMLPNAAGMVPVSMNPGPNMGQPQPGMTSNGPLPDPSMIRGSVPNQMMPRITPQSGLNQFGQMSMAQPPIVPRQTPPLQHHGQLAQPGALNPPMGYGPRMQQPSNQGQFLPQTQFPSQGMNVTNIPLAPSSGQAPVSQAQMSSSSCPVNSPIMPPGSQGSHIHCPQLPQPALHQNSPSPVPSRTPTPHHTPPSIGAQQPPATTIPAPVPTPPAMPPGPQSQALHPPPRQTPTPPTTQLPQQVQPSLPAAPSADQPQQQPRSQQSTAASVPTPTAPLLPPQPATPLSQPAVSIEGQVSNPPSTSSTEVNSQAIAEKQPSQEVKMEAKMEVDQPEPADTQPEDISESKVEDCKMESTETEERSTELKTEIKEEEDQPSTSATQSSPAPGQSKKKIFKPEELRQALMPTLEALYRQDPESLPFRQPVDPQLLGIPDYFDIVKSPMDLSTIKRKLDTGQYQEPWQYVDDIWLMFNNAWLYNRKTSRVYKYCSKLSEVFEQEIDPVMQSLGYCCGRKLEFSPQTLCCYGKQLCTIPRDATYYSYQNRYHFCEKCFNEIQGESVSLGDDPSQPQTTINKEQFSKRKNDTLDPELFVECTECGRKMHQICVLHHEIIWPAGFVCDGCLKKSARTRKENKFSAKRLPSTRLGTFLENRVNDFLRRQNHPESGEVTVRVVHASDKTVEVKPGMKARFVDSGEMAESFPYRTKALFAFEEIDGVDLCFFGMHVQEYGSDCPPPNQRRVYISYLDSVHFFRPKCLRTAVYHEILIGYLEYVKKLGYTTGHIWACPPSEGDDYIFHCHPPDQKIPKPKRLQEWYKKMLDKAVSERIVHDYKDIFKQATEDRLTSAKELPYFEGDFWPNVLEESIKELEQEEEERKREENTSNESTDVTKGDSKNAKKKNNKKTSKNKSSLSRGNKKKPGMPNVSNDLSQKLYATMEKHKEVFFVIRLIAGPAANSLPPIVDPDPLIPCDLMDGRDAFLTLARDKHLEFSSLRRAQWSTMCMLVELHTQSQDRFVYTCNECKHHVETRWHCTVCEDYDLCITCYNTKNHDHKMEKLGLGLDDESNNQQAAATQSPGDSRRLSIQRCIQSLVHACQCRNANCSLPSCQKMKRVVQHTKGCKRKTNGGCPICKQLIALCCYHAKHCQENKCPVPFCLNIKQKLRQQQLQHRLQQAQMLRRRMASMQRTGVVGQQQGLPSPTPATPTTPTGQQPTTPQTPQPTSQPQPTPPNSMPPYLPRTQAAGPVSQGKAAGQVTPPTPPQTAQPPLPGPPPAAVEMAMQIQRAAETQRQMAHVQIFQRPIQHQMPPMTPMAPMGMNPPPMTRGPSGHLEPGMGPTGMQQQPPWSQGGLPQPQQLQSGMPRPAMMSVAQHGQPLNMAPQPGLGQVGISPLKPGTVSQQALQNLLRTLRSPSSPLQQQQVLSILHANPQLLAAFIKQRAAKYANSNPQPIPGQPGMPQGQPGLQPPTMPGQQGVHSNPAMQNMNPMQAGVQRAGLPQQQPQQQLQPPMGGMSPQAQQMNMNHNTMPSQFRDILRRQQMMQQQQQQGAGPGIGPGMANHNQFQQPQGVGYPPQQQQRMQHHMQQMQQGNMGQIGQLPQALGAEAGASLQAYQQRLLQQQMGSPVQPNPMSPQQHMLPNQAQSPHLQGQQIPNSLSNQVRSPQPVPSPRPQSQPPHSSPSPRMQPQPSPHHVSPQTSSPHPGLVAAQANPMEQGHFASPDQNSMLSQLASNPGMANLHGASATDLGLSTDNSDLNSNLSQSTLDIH
Assay: Inhibition of P300 CH1 domain-mediated HIF1 transcriptional activity in human LN229-V6R cells assessed as reduction in luciferase activity incubated for 1 hr under normoxia followed by 24 hrs under hypoxia by reporter gene assay
Assay type: cell-based
EXPERIMENTAL READOUT: inhibition

>  <SMILES STRUCTURE>
CC1(C)C=Cc2cc(CN(C3CC3)S(=O)(=O)c3ccccn3)ccc2O1

>  <inhibition>
Dose-dependent effect

$$$$
>  <SMILES STRUCTURE>
CC(C)N(Cc1ccc2c(c1)C=CC(C)(C)O2)S(=O)(=O)c1ccccn1

>  <inhibition>
Dose-dependent effect

$$$$
>  <SMILES STRUCTURE>
CC(C)CN(Cc1ccc2c(c1)C=CC(C)(C)O2)S(=O)(=O)c1ccncc1

>  <inhibition>
Dose-dependent effect

$$$$
>  <SMILES STRUCTURE>
COc1cc(CN(C(C)C)S(=O)(=O)c2ccccn2)cc2c1OC(C)(C)C=C2

>  <inhibition>
Dose-dependent effect

$$$$
>  <SMILES STRUCTURE>
CC(C)CN(Cc1ccc2c(c1)C=CC(C)(C)O2)S(=O)(=O)c1ccccn1

>  <inhibition>
Dose-dependent effect

$$$$
>  <SMILES STRUCTURE>
CC1(C)C=Cc2cc(CN(C3CCC3)S(=O)(=O)c3ccccn3)ccc2O1

>  <inhibition>
Dose-dependent effect

$$$$
>  <SMILES STRUCTURE>
CC1(C)C=Cc2cc(CN(CC3CC3)S(=O)(=O)c3ccccn3)ccc2O1

>  <inhibition>
Dose-dependent effect

$$$$
>  <SMILES STRUCTURE>
CC(C)CN(Cc1ccc2c(c1)C=CC(C)(C)O2)S(=O)(=O)c1nccn1C

>  <inhibition>
Dose-dependent effect

$$$$

Qu. Form field - read-out: inhibition; system: Histone acetyltransferase p300 (Homo sapiens) (UniProt Q09472); submitted item: `CC(C)CN(Cc1ccc2c(c1)C=CC(C)(C)O2)S(=O)(=O)c1nccs1`
Ans. Dose-dependent effect

Qu. Form field - read-out: inhibition; system: Histone acetyltransferase p300 (Homo sapiens) (UniProt Q09472); submitted item: `CC1(C)C=Cc2cc(CN(C3CCCC3)S(=O)(=O)c3ccccn3)ccc2O1`
Ans. Dose-dependent effect

Qu. Form field - read-out: inhibition; system: Histone acetyltransferase p300 (Homo sapiens) (UniProt Q09472); submitted item: `CC(C)CN(Cc1cc(O)c2c(c1)C=CC(C)(C)O2)S(=O)(=O)c1ccncc1`
Ans. Dose-dependent effect

Qu. Form field - read-out: inhibition; system: Histone acetyltransferase p300 (Homo sapiens) (UniProt Q09472); submitted item: `CC(C)CN(Cc1cc(O)c2c(c1)C=CC(C)(C)O2)S(=O)(=O)c1ccccn1`
Ans. Dose-dependent effect
